biological target: T1, GFP-fused huCB1-SMALP (human CB1 in styrene maleic acid lipoparticles) (human, UniProt P21554 1-472); experiment: flow cytometry, yeast-displayed IgG, GFP MFI
T1 construct: Prepared as in Luna V. et al. 2018; also called huCB1-GFP-SMALP; wtCB1-SMALP; not shown: GFP fusion
T1 sequence (P21554 whole entry, the tested form may be a part): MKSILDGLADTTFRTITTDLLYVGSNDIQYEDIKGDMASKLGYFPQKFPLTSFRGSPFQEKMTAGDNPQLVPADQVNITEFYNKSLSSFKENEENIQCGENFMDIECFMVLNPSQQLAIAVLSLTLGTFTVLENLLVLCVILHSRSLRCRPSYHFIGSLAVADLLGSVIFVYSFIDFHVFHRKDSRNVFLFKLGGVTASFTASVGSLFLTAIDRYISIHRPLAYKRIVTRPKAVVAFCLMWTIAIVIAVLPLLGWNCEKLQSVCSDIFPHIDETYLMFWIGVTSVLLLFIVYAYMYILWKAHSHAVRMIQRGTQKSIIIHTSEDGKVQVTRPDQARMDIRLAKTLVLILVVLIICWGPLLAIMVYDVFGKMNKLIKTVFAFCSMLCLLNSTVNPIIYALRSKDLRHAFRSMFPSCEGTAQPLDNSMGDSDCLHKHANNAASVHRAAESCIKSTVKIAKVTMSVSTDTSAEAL
Measured 100 nM huCB1-SMALP binding (normalized to 10D10) by item
property measured: 100 nM huCB1-SMALP binding (normalized to 10D10) (fold)

[
  {
    "binder": "LIBC523661-1 (antibody, IgG1, V domains shown) VH: QVQLQESGPGLVKPSQTLSLTCTVSGGSIRRGGDYWSWIRQHPGKGLEWIGHIYYEGSTKYNPSFKGRATISVNTYKNQFSLKLSSVTAADTAVYYCARDYDPVTGHSYYYYGMDVWGQGTTVTVSS VL: DIVMTQSPLSLPVTPGEPASISCRSSQSLLTSSGYNYVDWYLQKPGQSPQLLIYQGSNRASGVPDRFSGSGSGTDFTLKISRVEAEDVGVYYCRQARAIPRTFGQGTKVEIKR",
    "endpoint unit": "fold",
    "experimental value": 8
  },
  {
    "binder": "LIBC523868-1 (antibody, V domains shown) VH: QVQLQESGPGLVKPSQTLSLTCTVSGGSIRRGGDYWSWIRQHPGKGLEWIGHVYYEGSTAYNPSFEDRATISVNTYKNQFSLKLSSVTAADTAVYYCARDYDILTGYSYYYYGMDVWGQGTTVTVSS VL: DIVMTQSPLSLPVTPGEPASISCRSSQSLLTSYGINYVDWYLQKPGQSPQLLIYLGSNRASGVPDRFSGSGSGTDFTLKISRVEAEDVGVYYCMQARQIPRTFGQGTKVEIKR",
    "endpoint unit": "fold",
    "experimental value": 4.21
  },
  {
    "binder": "LIBC523862-1 (antibody, V domains shown) VH: QVQLQESGPGLVKPSQTLSLTCTVSGGSIRRGGDYWSWIRQHPGKGLEWIGHIYQTGSTAYNPSLKGRATISVNTYKNQFSLKLSSVTAADTAVYYCARDYDILTGYSYYYYGMDVWGQGTTVTVSS VL: DIVMTQSPLSLPVTPGEPASISCRSSQSLLHSTGANYVDWYLQKPGQSPQLLIYLGSNRASGVPDRFSGSGSGTDFTLKISRVEAEDVGVYYCRQAIALPRTFGQGTKVEIKR",
    "endpoint unit": "fold",
    "experimental value": 3.97
  },
  {
    "binder": "LIBC523813-1 (antibody, V domains shown, also called LIBC523813-1 + VK2 germline fix) VH: QVQLQESGPGLVKPSQTLSLTCTVSGGSIRRGGDYWSWIRQHPGKGLEWIGHVYYTGQTAYNPKFKDRATISVKTYKNQFSLKLSSVTAADTAVYYCARDYDILTGYSYYYYGMDVWGQGTTVTVSS VL: DIVMTQSPLSLPVTPGEPASISCRSSQSLLSSSGANYVDWYLQKPGQSPQLLIYLGSNRASGVPDRFSGSGSGTDFTLKISRVEAEDVGVYYCMQARGIPRTFGQGTKVEIKR",
    "endpoint unit": "fold",
    "experimental value": 6.32
  },
  {
    "binder": "LIBC523969-1 (antibody, V domains shown) VH: QVQLQESGPGLVKPSQTLSLTCTVSGGSIRRGGDYWSWIRQHPGKGLEWIGHIYQTGQTKYNPNLKGRATISVNTYKNQFSLKLSSVTAADTAVYYCARDYDILTGYSYYYYGMDVWGQGTTVTVSS VL: DIVMTQSPLSLPVTPGEPASISCRSSQSLLSSTGANYLDWYLQKPGQSPQLLIYQGSNRASGVPDRFSGSGSGTDFTLKISRVEAEDVGVYYCRQAVGLPRTFGQGTKVEIKR",
    "endpoint unit": "fold",
    "experimental value": 5.69
  }
]
